Cited source: patent US20110294766A1

Target: recombinant human GR (Homo sapiens)
Sequence (P04150 1-777): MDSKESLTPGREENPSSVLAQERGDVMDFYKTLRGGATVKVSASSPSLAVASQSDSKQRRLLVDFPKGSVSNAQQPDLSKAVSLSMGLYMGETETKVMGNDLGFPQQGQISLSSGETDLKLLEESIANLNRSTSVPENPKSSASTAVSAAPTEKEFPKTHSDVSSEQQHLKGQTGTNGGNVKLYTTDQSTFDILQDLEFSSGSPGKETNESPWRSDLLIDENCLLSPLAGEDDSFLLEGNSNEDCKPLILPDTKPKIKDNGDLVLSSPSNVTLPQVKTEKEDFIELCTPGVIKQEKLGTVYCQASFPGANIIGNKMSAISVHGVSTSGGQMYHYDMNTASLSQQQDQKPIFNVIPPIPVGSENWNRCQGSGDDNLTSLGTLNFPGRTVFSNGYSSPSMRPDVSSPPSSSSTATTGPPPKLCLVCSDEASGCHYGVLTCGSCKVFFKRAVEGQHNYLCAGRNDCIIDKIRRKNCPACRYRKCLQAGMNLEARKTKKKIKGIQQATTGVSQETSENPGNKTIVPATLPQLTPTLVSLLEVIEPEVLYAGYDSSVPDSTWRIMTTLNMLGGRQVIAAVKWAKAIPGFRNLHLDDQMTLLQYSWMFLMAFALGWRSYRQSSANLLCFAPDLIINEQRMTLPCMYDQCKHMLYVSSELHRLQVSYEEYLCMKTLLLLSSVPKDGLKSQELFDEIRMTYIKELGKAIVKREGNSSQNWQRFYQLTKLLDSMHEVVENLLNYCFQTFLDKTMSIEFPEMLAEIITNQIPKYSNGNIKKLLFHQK
Assay: Human Glucocorticoid Receptor (GR) Assay (fluorescence polarization, Panvera/Invitrogen kit)
Details: GS Red tracer, 2 hours at room temperature, 100% control 10 μM Dexamethasone, read-out: Inhibition of GR binding, IC50
pIC50: −log10 of the molar value.
readoutType: pIC50

Cc1ccc([C@H]2O[C@@H]3C[C@H]4[C@@H]5C[C@H](F)C6=CC(=O)C=C[C@]6(C)[C@@]5(F)[C@@H](O)C[C@]4(C)[C@]3(C(=O)SCF)O2)o1	9.00
Cc1ccc(C2O[C@@H]3C[C@H]4[C@@H]5C[C@H](F)C6=CC(=O)C=C[C@]6(C)[C@@]5(F)[C@@H](O)C[C@]4(C)[C@]3(C(=O)SCC#N)O2)o1 (stereo partly drawn)	8.96
CSC(=O)[C@@]12O[C@@H](c3cccs3)O[C@@H]1C[C@H]1[C@@H]3C[C@H](F)C4=CC(=O)C=C[C@]4(C)[C@@]3(F)[C@@H](O)C[C@@]12C	9.02
C[C@]12C=CC(=O)C=C1[C@@H](F)C[C@H]1[C@@H]3C[C@H]4OC(c5cccc6c5OCC6)O[C@@]4(C(=O)SCF)[C@@]3(C)C[C@H](O)[C@@]12F (stereo partly drawn)	9.00
Cc1ccc(C2O[C@@H]3C[C@H]4[C@@H]5CCC6=CC(=O)C=C[C@]6(C)[C@H]5[C@@H](O)C[C@]4(C)[C@]3(C(=O)SCC#N)O2)c(C)c1 (stereo partly drawn)	8.57

(a) C[C@]12C=CC(=O)C=C1[C@@H](F)C[C@H]1[C@@H]3C[C@H]4OC(c5cccc(C#N)c5)O[C@@]4(C(=O)SCC#N)[C@@]3(C)C[C@H](O)[C@@]12F (stereo partly drawn)
(b) Cc1ccc(C2O[C@@H]3C[C@H]4[C@@H]5C[C@H](F)C6=CC(=O)C=C[C@]6(C)[C@@]5(F)[C@@H](O)C[C@]4(C)[C@]3(C(=O)SCF)O2)cc1 (stereo partly drawn)
(c) C[C@]12C=CC(=O)C=C1[C@@H](F)C[C@H]1[C@@H]3C[C@H]4OC(c5ccc(OC(F)(F)F)cc5)O[C@@]4(C(=O)SCC#N)[C@@]3(C)C[C@H](O)[C@@]12F (stereo partly drawn)
Q. Hi! Can you put these in order of pIC50, lowest number first? Ranked list of labels, please, in the requested order.
A. c, b, a

(a) C[C@]12C=CC(=O)C=C1[C@@H](F)C[C@H]1[C@@H]3C[C@H]4OC(c5cccc(F)c5)O[C@@]4(C(=O)SCC#N)[C@@]3(C)C[C@H](O)[C@@]12F (stereo partly drawn)
(b) CSC(=O)[C@@]12OC(c3ccc(C)o3)O[C@@H]1C[C@H]1[C@@H]3C[C@H](F)C4=CC(=O)C=C[C@]4(C)[C@@]3(F)[C@@H](O)C[C@@]12C (stereo partly drawn)
Q. Lab note: check whether a or b shows the higher recorded pIC50. Label of pick, please.
A. a
(a: 9.00, b: 8.72)

(a) C[C@]12C=CC(=O)C=C1[C@@H](F)C[C@H]1[C@@H]3C[C@H]4OC(c5ccccc5F)O[C@@]4(C(=O)SCC#N)[C@@]3(C)C[C@H](O)[C@@]12F (stereo partly drawn)
(b) C[C@]12C=CC(=O)C=C1CC[C@@H]1[C@@H]2[C@@H](O)C[C@@]2(C)[C@H]1C[C@H]1OC(c3ccc(C(F)(F)F)cc3)O[C@]12C(=O)SCC#N (stereo partly drawn)
(c) C[C@]12C=CC(=O)C=C1[C@@H](F)C[C@H]1[C@@H]3C[C@H]4OC(c5cccs5)O[C@@]4(C(=O)SCC#N)[C@@]3(C)C[C@H](O)[C@@]12F (stereo partly drawn)
Q. Hi! Can you put these in order of pIC50, lowest number first? Ranked list of labels, please, in the requested order.
A. b, a, c

(P) C[C@]12C=CC(=O)C=C1CC[C@@H]1[C@@H]2[C@@H](O)C[C@@]2(C)[C@H]1C[C@H]1OC(c3ccco3)O[C@]12C(=O)SCF (stereo partly drawn)
(Q) C[C@]12C=CC(=O)C=C1CC[C@@H]1[C@@H]2[C@@H](O)C[C@@]2(C)[C@H]1C[C@H]1OC(c3ccc(C(F)(F)F)cc3)O[C@]12C(=O)SCF (stereo partly drawn)
Q. Lab note: check whether P or Q shows the higher recorded pIC50. Label of pick, please.
A. P
(P: 9.00, Q: 8.77)

###

Target: recombinant human GR (Homo sapiens)
Sequence (P04150 1-777): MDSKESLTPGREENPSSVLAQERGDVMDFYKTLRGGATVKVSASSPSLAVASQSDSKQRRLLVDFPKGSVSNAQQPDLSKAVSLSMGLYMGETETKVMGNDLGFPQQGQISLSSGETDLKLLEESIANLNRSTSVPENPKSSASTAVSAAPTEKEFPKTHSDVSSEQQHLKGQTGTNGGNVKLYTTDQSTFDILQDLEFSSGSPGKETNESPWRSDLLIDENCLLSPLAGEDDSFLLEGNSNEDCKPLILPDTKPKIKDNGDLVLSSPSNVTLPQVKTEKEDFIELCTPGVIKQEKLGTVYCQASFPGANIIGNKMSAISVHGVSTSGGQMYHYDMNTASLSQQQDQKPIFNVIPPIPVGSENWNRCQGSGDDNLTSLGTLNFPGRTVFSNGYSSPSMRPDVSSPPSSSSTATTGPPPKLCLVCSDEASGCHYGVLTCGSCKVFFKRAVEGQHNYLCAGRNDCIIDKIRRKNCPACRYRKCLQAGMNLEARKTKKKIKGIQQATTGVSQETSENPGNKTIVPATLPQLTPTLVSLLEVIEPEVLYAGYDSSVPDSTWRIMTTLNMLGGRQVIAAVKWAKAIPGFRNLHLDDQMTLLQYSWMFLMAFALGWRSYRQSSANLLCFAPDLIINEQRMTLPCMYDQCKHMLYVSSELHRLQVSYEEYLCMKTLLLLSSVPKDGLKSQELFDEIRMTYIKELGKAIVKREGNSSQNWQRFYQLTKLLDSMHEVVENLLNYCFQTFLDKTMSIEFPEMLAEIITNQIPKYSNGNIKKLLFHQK
Assay: Human Glucocorticoid Receptor (GR) Assay (fluorescence polarization, Panvera/Invitrogen kit)
Conditions: GS Red tracer, 2 hours at room temperature, 100% control 10 μM Dexamethasone, read-out: Inhibition of GR binding, IC50
readoutType: IC50 (nM)

C[C@]12C=CC(=O)C=C1[C@@H](F)C[C@H]1[C@@H]3C[C@H]4OC(c5ccco5)O[C@@]4(C(=O)SCF)[C@@]3(C)C[C@H](O)[C@@]12F (stereo partly drawn)	0.92
C[C@]12C=CC(=O)C=C1[C@@H](F)C[C@H]1[C@@H]3C[C@H]4OC(c5ccc(Cl)cc5)O[C@@]4(C(=O)SCF)[C@@]3(C)C[C@H](O)[C@@]12F (stereo partly drawn)	1.3
C[C@]12C=CC(=O)C=C1[C@@H](F)C[C@H]1[C@@H]3C[C@H]4OC(c5ccccc5)O[C@@]4(C(=O)SCF)[C@@]3(C)C[C@H](O)[C@@]12F (stereo partly drawn)	1.1

###

Biological target: recombinant human GR (Homo sapiens, UniProt P04150)
Test: Human Glucocorticoid Receptor (GR) Assay (fluorescence polarization, Panvera/Invitrogen kit)
Settings: GS Red tracer, 2 hours at room temperature, 100% control 10 μM Dexamethasone, read-out: Inhibition of GR binding, IC50
pIC50: −log10 of the molar value.
readoutType: pIC50

Previously resolved entries follow.
COc1ccc(C2O[C@@H]3C[C@H]4[C@@H]5CCC6=CC(=O)C=C[C@]6(C)[C@H]5[C@@H](O)C[C@]4(C)[C@]3(C(=O)SCC#N)O2)c(F)c1 (stereo partly drawn)	8.85
C[C@]12C=CC(=O)C=C1[C@@H](F)C[C@H]1[C@@H]3C[C@H]4OC(c5ccc(C(F)(F)F)o5)O[C@@]4(C(=O)SCF)[C@@]3(C)C[C@H](O)[C@@]12F (stereo partly drawn)	8.92
CSC(=O)[C@@]12OC(c3ccc(F)cc3F)O[C@@H]1C[C@H]1[C@@H]3C[C@H](F)C4=CC(=O)C=C[C@]4(C)[C@@]3(F)[C@@H](O)C[C@@]12C (stereo partly drawn)	8.96
C[C@]12C=CC(=O)C=C1[C@@H](F)C[C@H]1[C@@H]3C[C@H]4OC(c5ccccc5F)O[C@@]4(C(=O)SCF)[C@@]3(C)C[C@H](O)[C@@]12F (stereo partly drawn)	9.24
Cc1noc(C)c1C1O[C@@H]2C[C@H]3[C@@H]4C[C@H](F)C5=CC(=O)C=C[C@]5(C)[C@@]4(F)[C@@H](O)C[C@]3(C)[C@]2(C(=O)SCF)O1 (stereo partly drawn)	9.00

(1) COc1ccc([C@H]2O[C@@H]3C[C@H]4[C@@H]5CCC6=CC(=O)C=C[C@]6(C)[C@H]5[C@@H](O)C[C@]4(C)[C@]3(C(=O)SC)O2)c(F)c1 (single isomer, unassigned)
(2) CSC(=O)[C@@]12OC(c3ccc(C(F)(F)F)cc3)O[C@@H]1C[C@H]1[C@@H]3CCC4=CC(=O)C=C[C@]4(C)[C@H]3[C@@H](O)C[C@@]12C (stereo partly drawn)
Q. Compare reported pIC50 values for 1 and 2 . Which is lower? Label of pick, please.
A. 2
(2: 8.66, 1: 9.06)
